Hey, just so you know, these numbers are from the kinase profiling compilation of Christmann-Franck et al. (2016).

The following molecules are shown together with reported residual activity values.
# Test System: PIM1 (human)
# Protocol Text: radiometric filter-binding kinase assay, Kinase HotSpot
# Test Parameters: compound 0.5 µM; ATP 10 µM
Give your result in % as a bare value.

CN(C)S(=O)(=O)c1ccc2c(c1)/C(=C/c1cc3c([nH]1)CCCC3)C(=O)N2: 101

Q: Report residual activity for "Fc1ccc(-c2nc3n(c2-c2ccncc2)CCS3)cc1" please.
Result: 104

Q: Likewise for "Cn1c2ccccc2c2c3c(c4c5ccccc5n(CCC#N)c4c21)CNC3=O" ?
Result: 36.1

Q: Record: "Cc1nc(-c2ccccc2)c(-c2ccncc2)o1"
Result: 105

Q: Here is the next molecule: "c1ccc2c(-c3ccncc3)c[nH]c2c1"
Result: 93.5

Q: Next: "CCCCc1c(-c2ccc(OC)cc2)[nH]c2nccnc12"
Result: 97
